tested on: NCI-H187; assay: Cytotoxicity against human NCI-H187 cells; format: functional, cell-based
Consider the following compounds; for each one, report its IC50.
One number for each entry, in µg/mL.

>  <compound>
C=C/C(C)=C\C[C@]1(C)[C@H](C)[C@@H](O)[C@H](O)[C@@]23C(=C[C@H](OC(=O)CC(C)C)C[C@@H]12)[C@@H](OC(C)=O)O[C@H]3OC(C)=O [ESCULENTIN B]

>  <meas-value>
0.68

$$$$

Okay, here is my list. What is IC50 for each of these?
1. C=C/C(C)=C\C[C@]1(C)[C@H](C)C[C@H](O)[C@@]23C(=C[C@H](OC(=O)CCC)C[C@@H]12)[C@@H](OC(C)=O)O[C@H]3OC(C)=O (relative stereo) [CASEARGREWINS F]
2. C=C/C(C)=C\C[C@]1(C)[C@H](C)CC[C@@]23C(=C[C@H](OC(=O)CCC)C[C@@H]12)[C@@H](OC(C)=O)O[C@H]3OC(C)=O (relative stereo) [CASEARGREWINS E]

[reply]
[4.72, 0.15]

Working through the 2 compounds below one at a time, give IC50 for each.
1. C=C/C(C)=C\C[C@]1(C)[C@H](C)[C@@H](O)[C@H](O)[C@@]23C(=C[C@H](OC(=O)CCCCC)C[C@@H]12)[C@@H](OC)O[C@H]3OC(C)=O (relative stereo) [CASEARGREWINS K]
2. C=C/C(C)=C\C[C@]1(C)[C@H](C)C[C@H](O)[C@@]23C(=C[C@H](OC(=O)CCCCC)C[C@@H]12)[C@@H](OC)O[C@H]3OC(C)=O (relative stereo) [CASEARGREWINS J]

[reply]
1. 5.11
2. 1.22

---

So I've got a bunch of compounds here, and I need their IC50 values.
test: Cytotoxicity against human BC1 cells; format: functional, cell-based
Numbers only, in µg/mL.

Reference set (2 entries):
>  <compound>
C=C/C(C)=C\C[C@]1(C)[C@H](C)C[C@H](O)[C@@]23C(=C[C@H](OC(=O)CCC)C[C@@H]12)[C@@H](OC)O[C@H]3OC(C)=O (relative stereo)

>  <IC50 [µg/mL]>
3.97

$$$$
>  <compound>
COc1cccc2c1C(=O)c1c(O)c3c(c(O)c1C2=O)C[C@@](O)(C(=O)CO)C[C@@H]3O[C@H]1C[C@H](N)[C@H](O)[C@H](C)O1

>  <IC50 [µg/mL]>
0.13

$$$$

I need IC50 for every entry listed below, if you could help.
1. C=C/C(C)=C\C[C@]1(C)[C@H](C)[C@@H](O)[C@H](O)[C@@]23C(=C[C@H](OC(=O)CC(C)C)C[C@@H]12)[C@@H](OC(C)=O)O[C@H]3OC(C)=O
2. C=C/C(C)=C\C[C@]1(C)[C@H](C)C[C@H](O)[C@@]23C(=C[C@H](OC(=O)CCC)C[C@@H]12)[C@@H](OC(C)=O)O[C@H]3OC(C)=O (relative stereo)
3. C=C/C(C)=C\C[C@]1(C)[C@H](C)C[C@H](O)[C@@]23C(=C[C@H](OC(=O)CCCCC)C[C@@H]12)[C@@H](OC)O[C@H]3OC(C)=O (relative stereo)
4. C=C/C(C)=C\C[C@]1(C)[C@H](C)[C@@H](O)[C@H](O)[C@@]23C(=C[C@H](OC(=O)CCCCC)C[C@@H]12)[C@@H](OC)O[C@H]3OC(C)=O (relative stereo)

[reply]
[0.17, 0.2, 0.99, 3.4]

The reported numbers originate from ChEMBL document CHEMBL1145417.
